All values here come from patent US20160251436A1.

# System Tested: human Programmed Death-1 (PD-1) expressed on the cell surface (human, UniProt Q15116 25-288)
# Sequence (Q15116 25-288): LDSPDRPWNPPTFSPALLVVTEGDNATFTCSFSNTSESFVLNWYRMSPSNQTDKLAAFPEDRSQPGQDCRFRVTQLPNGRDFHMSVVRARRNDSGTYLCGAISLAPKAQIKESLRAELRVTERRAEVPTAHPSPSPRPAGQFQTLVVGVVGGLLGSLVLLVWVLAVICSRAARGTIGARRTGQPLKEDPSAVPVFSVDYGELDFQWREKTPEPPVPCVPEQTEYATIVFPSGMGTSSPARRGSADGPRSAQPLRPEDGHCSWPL
# Measurement Protocol: cell-based or functional assay
Assay Metric: CD8 IFNγ % positive (% positive)
Give the value in % positive but do not write % positive after it.

Reported CD8 IFNγ % positive for 100413_E1VH9_100414_E1VK5 (antibody, V domains shown, Mouse variable regions; cloned into pFUSE-CHIg-mG1 (murine IgG1 Fc), expressed in HEK293) VH: EVQLQESGPSLVQPSQSLSITCTVSGFSLTSYGVHWVRQSPGKGLEWLGVIWRGGNTDYNAAFMSRLSITKDNSKSQVFFKMNSLQADDTAIYYCAASMIGGYWGQGTTLTVSS VL: DIVLTQTPLSLPVSLGDQASISCRSSQSIVHSNGNTYLEWYLQKPGQSPKLLIYKVSNRFSGVPDRFSGSGSGTNFTLKISRVEAEDLGVYYCFQGSHVPLTFGAGTKLELK : what is it?
27
